Data provenance is patent US20260069689A1.

Study System: SARS-COV-2 RBD extracellular domain expressed with a C-terminal myc-myc-hexahistidine tag (SARS-COV-2 RBD-mmH) (SARS-CoV-2)
Assay Method Text: SPR Biacore, mAb captured on anti-hFc, RBD-mmH analyte, 37 C
Let's look at some binders and their measured t½.

Binder: mAb15162 (antibody, V domains shown) VH: EVQLVETGGGLIQPGGSLRLSCAASEFIVSRNYMSWVRQAPGKGLEWVSLIYSGGSTYYADSVKGRFTISRDNSKNILYLQMNSLRAEDTAVYYCARDRGGISDYWGQGTLVTVSS VL: DIQMTQSPSSLSASVGDRVTITCQASQDINKYLNWFQQKPGKAPKLLIYDASNLETGVPSRFSGSGSGTDFTFTISSLQPEDIATYYCQQYDNLPRTFGQGTKLEIKR
t½, min: 3.9
--
Binder: mAb14257 (antibody, V domains shown) VH: EVQLVESGGGLVQPGGSLRLSCAASGFTVSRSYMNWVRQAPGKGLEWVSVVFTGGTTKHTDSVKGRFTISRDNSMNTLYLQMNSLRPEDTAVYYCARVAIVETTGAFDIWGQGTMVTVSS VL: QSVLTQPPSVSGAPGQRVTISCTGTSSNIGADFDVHWYQQFPGTAPKLLIYGHTNRPSGIPDRFSGSKSGTSASLAITGLQAEDEADYYCQSYDSSLSGSVVFGGGTKLTVLG
t½, min: 1.5
